Attribution: ChEMBL document CHEMBL5104109

assay_info: Metabolic stability in human liver microsomes assessed as half life at 0.3 uM and measured upto 1 hrs
Format: ADME, Microsome
attribute_measured: half-life at 0.3 µM (h)
Hi! Could you send only the number? It should be in h, unit omitted.

>>> print(df.to_string())
                                item_smiles   attribute_measured  meas_value
0  Cn1cnc(COC(=O)N[C@H]2CCc3c(C(=O)Nc4ccc(F)c(Cl)c4)ccc(F)c32)n1  half-life at 0.3 µM        3.22

Exercise: Requested field: half-life at 0.3 µM. Item: `Cn1cnc(COC(=O)N[C@H]2CCc3c2cn(C)c3C(=O)Nc2ccc(F)c(Cl)c2)n1`
Solution: 4.27

* * *

# maps each entry to its microsomal CLint at 1 h, 0.3 µM
assay_info: in vitro
stated_conditions: human, liver microsomes
Description: Metabolic stability in human liver microsomes assessed as intrinsic clearance at 0.3 uM per mg of protein upto 1 hrs
Response body: numeric value in µL/min/mg, unit text excluded.

Below are worked cases with known answers.
>>> df
                                item_smiles  measurement_units  meas_value
0  Cn1cnc(COC(=O)N[C@H]2CCc3c2cn(C)c3C(=O)Nc2ccc(F)c(Cl)c2)n1          µL/min/mg         5.4
1  Cc1c2c(c(C(=O)Nc3ccc(F)c(Cl)c3)n1C)CC[C@@H]2NC(=O)OCc1ncn(C)n1          µL/min/mg        12.7
2  Cn1cc2c(c1C(=O)Nc1ccc(F)c(Cl)c1)CC[C@@H]2NC(=O)OCc1nc[nH]n1          µL/min/mg         4.1

Exercise: Any idea what microsomal CLint at 1 h, 0.3 µM was measured for `Cn1cnc(COC(=O)N[C@H]2CCc3c2c(Cl)n(C)c3C(=O)Nc2ccc(F)c(Cl)c2)n1` ?
Solution: 8.8

Exercise: Now give it for `Cn1cc(COC(=O)N[C@H]2CCc3c2cn(C)c3C(=O)Nc2ccc(F)c(Cl)c2)nn1` too.
Solution: 24.4

* * *

Below: a set of entries, each annotated with reported AUC.
assay_info: AUC (0-infinity) in CD-1 mouse at 10 mg/kg, po
Format: ADME, organism-based
Parameters: time infinity, dose 10 mg/kg, route po
stated_conditions: in vivo
// return numeric value only (unit: ng·h/mL, not printed)

Here are 3 molecules together with their reported answers.
                                item_smiles  attribute_measured  measurement_units  meas_value
0  Cn1cnc(COC(=O)N[C@H]2CCc3c2cn(C)c3C(=O)Nc2ccc(F)c(Cl)c2)n1                 AUC            ng·h/mL       46700
1  Cn1cc2c(c1C(=O)Nc1ccc(F)c(Cl)c1)CC[C@@H]2NC(=O)OCc1c[nH]nn1                 AUC            ng·h/mL       60600
2  Cn1c(Cl)c2c(c1C(=O)Nc1ccc(F)c(Cl)c1)CC[C@@H]2NC(=O)OCc1c[nH]nn1                 AUC            ng·h/mL       30600

Exercise: Please report the recorded AUC for `Cn1cc2c(c1C(=O)Nc1ccc(F)c(Cl)c1)CC[C@@H]2NC(=O)OCc1nc[nH]n1` .
Solution: 40700

Exercise: Note, next up: `Cn1cnc(COC(=O)N[C@H]2CCc3c(C(=O)Nc4ccc(F)c(Cl)c4)ccc(F)c32)n1`
Solution: 9870
